- tested system: T1, human HHLA2-mIgG2a fusion protein (human; mouse, UniProt Q9UM44 23-344, limits assumed)
- T1 construct: also called hHHLA2-mIgG2a; HHLA2-Fc
- T1 sequence: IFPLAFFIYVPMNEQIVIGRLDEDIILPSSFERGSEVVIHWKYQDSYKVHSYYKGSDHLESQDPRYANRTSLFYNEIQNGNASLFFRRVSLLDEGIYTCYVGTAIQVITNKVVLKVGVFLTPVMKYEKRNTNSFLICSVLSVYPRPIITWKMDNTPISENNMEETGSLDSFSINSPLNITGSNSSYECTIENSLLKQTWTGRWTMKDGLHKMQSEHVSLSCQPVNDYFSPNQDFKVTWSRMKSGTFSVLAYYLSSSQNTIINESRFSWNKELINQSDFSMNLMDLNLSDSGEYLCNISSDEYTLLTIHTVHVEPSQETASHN
- assay explanation: flow cytometry, mAb pre-incubated with 4 ug/ml HHLA2-mIgG2a; blockade of its binding to TMIGD2-transfected 293T cells
Each item that follows carries a reported IC50.
experimental endpoint: IC50 (µg/mL)

• anti-HHLA2 monoclonal antibody 4D1 (antibody, IgG1, V domains shown, also called 499.5.4D1.5.16; MHC2563) VH: QVQLQQSGAELVRPGVSVKISCKGSGYTFTDYAMHWVKQSHAKSLEWIGSISTYYGDTNYNQKFKGKATMTVDKSSSTAYMELARLTSEDSAIYYCARGNYDDWYFNVWGAGTTVTVSS VL: DIQMTQSPSSLSASLGERVSLTCRASQDISGYLSWLQQKPDGTIKRLIYSTSTLDSGVPKRFSGSRSGSDYSLTISSLESEDFADYYCLQYASSPYTFGGGAKLEIK = 0.56
• anti-HHLA2 monoclonal antibody 2C4 (antibody, IgG1, V domains shown, also called 499.5.2C4.E6.6.8.1; MHC2562) VH: EVHLQQSGPELEKPGVSVKISCKASGFSFTDYNMNWVKQSSGKSLEWIGNIDPYYGRINYNQKFKGKATLSVDKSSSTAYMHLKSLTSEDSAVYYCATGAYTSGYSWFAYWGQGTLVTVSA VL: ENVLTQSPGIMAASLGEKVTMTCSASSSVSSSYLHWYQQRSGASPKPLIHRTSNLASGVPARFSGSGSGTSYSLTISSVEAEDDATYYCQQWSGYPFTFGSGTKLEIK = 28.2
• anti-HHLA2 monoclonal antibody 1C8 (antibody, IgG2a, V domains shown, also called 499.5.1C8.9.12.2; MHC2564) VH: EVQLQQSGAELVQPGASVKLSCTASGFNIKDTYMHWVKQRPEQGLEWIGRIDPANGKTIFDPKFQVKATITADTSSNTVYLHLSSLTSEDTAIYYCAWLLPYYFDYWGQGTTLTVSS VL: EIVLTQSPAVMAASPGEKVTITCSVSSSISSSNLHWYQQKSGTSPKLWIYGTSNLASGVPVRFSGSGSGTSYSLTISSMEAEDAATYYCQKWSHYPLTFGAGTKLELK = 1.65
